Attribution: patent US20180153899A1

PROTOCOL_TEXT: Clinical study, steady state PK (Cycle 1 Day 15) after daily oral tablets of example 1
Assay type: in vivo, human
CONDITION_SET: human, in vivo, 150 mg qd (N = 6), geometric mean (CV %), read-out: T½ (converted)
REPORTED_PROPERTY: half-life (h)
Give the number; h is assumed, so skip it.

Task: Param item = Cc1cc(C(=O)Nc2nc3cccc(Cl)c3n2[C@@H]2CCCCN(C(=O)/C=C/CN(C)C)C2)ccn1 ; retrieve measured half-life.
Output: 17

---

PROTOCOL_TEXT: Clinical study, steady state PK (Cycle 1 Day 15) after daily oral tablets of example 1
Assay type: in vivo, human
CONDITION_SET: human, in vivo, 225 mg qd (N = 7), median (minimum-maximum)
REPORTED_PROPERTY: Tmax (h)
Give the number; h is assumed, so skip it.

Task: Param item = Cc1cc(C(=O)Nc2nc3cccc(Cl)c3n2[C@@H]2CCCCN(C(=O)/C=C/CN(C)C)C2)ccn1 [EGF816] ; retrieve measured Tmax.
Output: 3

---

PROTOCOL_TEXT: Clinical study, steady state PK (Cycle 1 Day 15) after daily oral tablets of example 1
Format: in vivo, human
CONDITION_SET: human, in vivo, 225 mg qd (N = 7), geometric mean (CV %)
REPORTED_PROPERTY: Cmax (ng/mL)
Give the number; ng/mL is assumed, so skip it.

Task: Param item = Cc1cc(C(=O)Nc2nc3cccc(Cl)c3n2[C@@H]2CCCCN(C(=O)/C=C/CN(C)C)C2)ccn1 ; retrieve measured Cmax.
Output: 1270

---

PROTOCOL_TEXT: Clinical study, steady state PK (Cycle 1 Day 15) after daily oral tablets of example 1
Assay type: in vivo, human
CONDITION_SET: human, in vivo, 200 mg qd (N = 7), geometric mean (CV %)
REPORTED_PROPERTY: Cmax

Task: Param item = Cc1cc(C(=O)Nc2nc3cccc(Cl)c3n2[C@@H]2CCCCN(C(=O)/C=C/CN(C)C)C2)ccn1 ; retrieve measured Cmax.
Output: 939 ng/mL

---

PROTOCOL_TEXT: Clinical study, steady state PK (Cycle 1 Day 15) after daily oral tablets of example 1
Type: in vivo, human
CONDITION_SET: human, in vivo, 150 mg qd (N = 6), geometric mean (CV %)
REPORTED_PROPERTY: AUC (ng·h/mL)
Give the number; ng·h/mL is assumed, so skip it.

Task: Param item = Cc1cc(C(=O)Nc2nc3cccc(Cl)c3n2[C@@H]2CCCCN(C(=O)/C=C/CN(C)C)C2)ccn1 [EGF816] ; retrieve measured AUC.
Output: 10500
